# System: kochia (Bassia scoparia)
# assay.details: Test A postemergence, kochia
# Type: in vivo
# condition.set: Postemergence, 500 g ai/ha; visual injury vs untreated controls after approx. 10 days; 0 to 100 scale (0 no effect, 100 complete control)
parameter.measured: Kochia plant response rating
Answer with a number only.

Some molecules with recorded Kochia plant response rating:
* Cc1c(NS(=O)(=O)C(F)(F)F)cc(C(=O)N2CCC3(CC2)OCCCO3)c(C)c1F [Compound 129] | 50
* Cc1cc(C)c(N(S(=O)(=O)C(F)(F)F)S(=O)(=O)C(F)(F)F)cc1-c1cc(C(F)(F)F)nn(C)c1=O [Compound 61] | 60
* Cc1cc(C#N)c(C(=O)N2CCCCC2)cc1NS(=O)(=O)C(F)(F)F [Compound 126] | 30
* Cc1cc(C)c(-c2ccnn(CC(C)C)c2=O)cc1NS(=O)(=O)C(F)(F)F [Compound 77] | 10
* Cc1cc(C)c(N(S(=O)(=O)C(F)(F)F)S(=O)(=O)C(F)(F)F)cc1C1=NOC2(CCOCC2)C1 [Compound 178] | 70
* Cc1cc(C)c(N(S(=O)(=O)C(F)(F)F)S(=O)(=O)C(F)(F)F)cc1C1=NOC2(CCC2)C1 [Compound 196] | 20

Let us move to another entry and its Kochia plant response rating.
Task: Give the reported Kochia plant response rating for this molecule. Cc1cc(C)c(N(S(=O)(=O)C(F)(F)F)S(=O)(=O)C(F)(F)F)cc1C(=O)N1CCC(F)(F)CC1 [Compound 210]
Result: 90

###

Examples of compounds with documented Plant response rating, Rice (0 to 100 scale, 0 is no effect, 100 is complete control) follow.
# System: rice (Oryza sativa)
# assay.details: Test B1 flooded paddy test, rice
# Format: in vivo
# condition.set: 250 g ai/ha, Flood, applied to paddy water, 2-leaf stage, visually evaluated after 10 to 14 days
No unit in the answer, only the number.

• Cc1cc(C)c(N(COC(=O)C(C)(C)C)S(=O)(=O)C(F)(F)F)cc1N1CCC2(CCC(C(F)(F)F)CC2)C1=O (stereo not shown) [Compound 403] = 0
• Cc1cc(C)c(N(COC(=O)C(C)(C)C)S(=O)(=O)C(F)(F)F)cc1C1=NOC(C(C)C)C1 (stereo not shown) [Compound 383] = 10
• Cc1cc(C)c(N2Cc3cccc(C)c3C2=O)cc1NS(=O)(=O)Cl [Compound 408] = 65
• C#CCN(C)C(=O)c1cc(N(COC(=O)C(C)(C)C)S(=O)(=O)C(F)(F)F)c(C)c(C)c1C [Compound 371] = 10
• CCOc1cccc2c1C(=O)N(c1cc(N(COC(=O)C(C)(C)C)S(=O)(=O)Cl)c(C)cc1C)C2 [Compound 414] = 0
• CCC1ON=C(c2cc(N(COC(=O)C(C)(C)C)S(=O)(=O)C(F)(F)F)c(C)cc2C)C1CC (stereo not shown) [Compound 344] = 40
• CCOC(=O)N(c1cc(C2=NOC3CCCC23)c(CC)cc1C)S(=O)(=O)C(F)(F)F (stereo not shown) [Compound 379] = 0
• Cc1c(NS(=O)(=O)C(F)(F)F)cc(C(=O)N2CCSCC2)c(C)c1C [Compound 283] = 0
• CCOC1CC(c2cc(NS(=O)(=O)C(F)(F)F)c(C)cc2C)=NO1 (stereo not shown) [Compound 318] = 0
• Cc1cc(C)c(N(COC(=O)OC(C)C)S(=O)(=O)C(F)(F)F)cc1C1=NOC2CCCC12 (stereo not shown) [Compound 314] = 25

Task: Look up and report measured Plant response rating, Rice (0 to 100 scale, 0 is no effect, 100 is complete control) for this entry: Cc1c(NS(=O)(=O)C(F)(F)F)cc(C(=O)N2CCC(Cl)CC2)c(C)c1C [Compound 356]
Result: 0

Task: Identify Plant response rating, Rice (0 to 100 scale, 0 is no effect, 100 is complete control) associated with the compound Cc1c(NS(=O)(=O)C(F)(F)F)cc(C(=O)N2CC(C)OC(C)C2)c(C)c1C (stereo not shown) [Compound 327]
Result: 0

Task: # return recorded Plant response rating, Rice (0 to 100 scale, 0 is no effect, 100 is complete control) for input Cc1cc(C)c(N(COC(=O)C(C)(C)C)S(=O)(=O)C(F)(F)F)cc1N1CCC2(CCC(F)(F)CC2)C1=O [Compound 397]
Result: 0

Task: Identify Plant response rating, Rice (0 to 100 scale, 0 is no effect, 100 is complete control) associated with the compound CCCCOC1CC(c2cc(NS(=O)(=O)C(F)(F)F)c(C)cc2C)=NO1 (stereo not shown) [Compound 323]
Result: 0

Task: Let me know recorded Plant response rating, Rice (0 to 100 scale, 0 is no effect, 100 is complete control) for Cc1cc(Cl)c(NS(=O)(=O)C(F)(F)F)cc1N1CC2(CCCCC2)OC1=O [Compound 394] , thanks.
Result: 0

Task: Respond only with Plant response rating, Rice (0 to 100 scale, 0 is no effect, 100 is complete control) recorded for Cc1c(C(=O)N2CCOCC2)cc(NS(=O)(=O)C(F)(F)F)c(Cl)c1F [Compound 321]
Result: 10

These measurements were taken from patent US20230278972A1.
